- System: HOP-92
- protocol_description: NCI tumour cell line growth inhibition, 48 h
The source made the active and inactive calls. No stated cut-off is given here; in the data, active = GI50 up to about 1.1 µM and inactive = higher.
Outcomes you can answer with include only these: active, inactive

molecule=CC[C@@]1(O)C(=O)OCc2c1cc1n(c2=O)Cc2c-1nc1ccc(N)cc1c2CC[Si](C)(C)C system=HOP-92 assigned_class=active
molecule="COc1cccc(NC(=O)C(=O)C(C(=O)c2ccccc2F)C2OC(=O)c3ccccc32)c1 (stereo not given)" system=HOP-92 assigned_class=inactive
molecule="CCCCCCCCCCCCCCCC(=O)OCC1OC(n2ccc(N)nc2=O)C(O)C1O (stereo not given)" system=HOP-92 assigned_class=inactive
molecule=Nc1ccc(-c2nc3ccc(F)cc3s2)cc1 system=HOP-92 assigned_class=inactive
molecule=COC1=CC(=O)c2c(c(COC(C)=O)cn2C)C1=O system=HOP-92 assigned_class=active
molecule=O=C(/C=C/c1ccc(-c2ccccc2)cc1)NCc1ccc(C(=O)NCc2ccccc2)cc1 system=HOP-92 assigned_class=inactive
molecule=COc1c2cc(C(C)(C)C)cc1Cc1cccc(c1O)Cc1cc(C(C)(C)C)cc(c1OC)Cc1cccc(c1O)Cc1cc(C(C)(C)C)cc(c1OC)Cc1cccc(c1O)C2 system=HOP-92 assigned_class=inactive
molecule=Sc1nnc(COc2ccc(Cl)cc2)o1 system=HOP-92 assigned_class=inactive

What outcome does the record of this test show for CCOC(=O)CC1C(C(=O)OCC)=Cn2c([nH]c3cccc4cccc2c43)=C1C(=O)OCC (stereo not given) ? inactive

What outcome does the record of this test show for C[C@]12CC[C@H](O)CC1=CC[C@@H]1[C@@H]2CC[C@]2(C)C(=N/N)/C(=N\O)C[C@@H]12 ? inactive

What outcome does the record of this test show for Cc1ccc2c(c1C)C(=O)C1(Cc3cc4c(cc3C1=O)CCC4)C2 (stereo not given) ? inactive

What outcome does the record of this test show for O=C(c1c(F)c(F)c(F)c(F)c1F)N1CCN(C(=O)c2c(F)c(F)c(F)c(F)c2F)C1=S ? inactive

What outcome does the record of this test show for COc1ccc2c(-c3ccc(OCCN(C)C)cc3)c(Oc3ccccc3)c(=O)oc2c1 ? inactive

What outcome does the record of this test show for O=C(C#Cc1ccccc1)N1CCCCC1 ? inactive

What outcome does the record of this test show for COC(=O)C1CCN(C(=O)OC(C)(C)C)CC1 ? inactive

What outcome does the record of this test show for CCOC(=O)C(=O)Nc1nc2c(OCC)cccc2s1 ? inactive

---

- System: SK-MEL-28
- protocol_description: NCI tumour cell line growth inhibition, 48 h
Calls of active or inactive are those of the source. Rule as the data show it: active = GI50 up to about 1.1 µM and inactive = higher.
Outcomes you can answer with include only these: active, inactive

For orientation, consider the following solved cases.
compound="CC(=O)O[C@H]1CCN2C(=O)C=CC(OCc3ccccc3)C12 (stereo not given in full)" assigned_class=inactive
compound="NC1CCC(N(CC(=O)O)CC(=O)O)C(N(CC(=O)O)CC(=O)O)C1 (stereo not given)" assigned_class=inactive
compound=CCOc1ccc(NC(=O)C(=O)Nn2c(N)nnc2N)cc1 assigned_class=inactive

What outcome does the record of this test show for COC(=O)c1cc(=O)n(-c2ccc3nn(C)nc3c2)cc1C(=O)OC ? inactive

What outcome does the record of this test show for O=C1CSC(c2ccccc2)N1c1ccc(-n2c(-c3ccccc3)nc3ccccc3c2=O)cc1 (stereo not given) ? inactive

What outcome does the record of this test show for CC[C@@]1(O)C(=O)OCc2c1cc1n(c2=O)Cc2c-1nc1ccc(N)cc1c2CC[Si](C)(C)C ? active

What outcome does the record of this test show for Cc1sc2nc3n(c(=O)c2c1C)N=C(c1ccccc1)CS3 ? inactive

What outcome does the record of this test show for COc1ccc(CC(CO)NC(=O)OCc2ccccc2)cc1Oc1ccc(CC(CO)NC(=O)OCc2ccccc2)cc1 (stereo not given) ? inactive

What outcome does the record of this test show for C#CCN(C)C(=O)N(CC#C)N=O ? inactive

What outcome does the record of this test show for O=C(Nc1ccc(I)cc1C(=O)NCCO)c1cccs1 ? inactive
